system: T1, MMP-26 (human)
T1 sequence: ASDF
experimentalDetails: cell-based or functional assay
propertyLabel: % Inhibition of JEG-3 cell invasion, 25 µg/ml (first test) (%)
// return numeric value only (unit: %, not printed)

Example binders with recorded % Inhibition of JEG-3 cell invasion, 25 µg/ml (first test):
# binder, endpointResult
data = [
    ("A04 (antibody, human IgG4, V domains shown) VH: EVQLLESGGGLVQPGGSLRLSCAASGFTFSEYNMAWVRQAPGKGLEWVSRIGSSGGKTKYADSVKGRFTISRDNSKNTLYLQMNSLRAEDTAVYYCARDEAPDYGDDAEAFDIWGQGTMVTVSS VL: QSALTQPPSASGTPGQRVTISCSGGYSNMGSNYAHWYQQVPGTAPKLLIYNNNQRPSGVPDRFSGSKSGTSASLAISGLRSEDEADYYCAAWDENLSGPVFGTGTKVTVLG", 27),
    ("C04 (antibody, human IgG4, V domains shown) VH: EVQLLESGGGLVQPGGSLRLSCAASGFTFSMYFMVWVRQAPGKGLEWVSWIGSSGGETPYADSVKGRFTISRDNSKNTLYLQMNSLRAEDTAVYYCARGYSSGWYVMGDYWGQGTLVTVSS VL: QSALTQPPSASGTPGQRVTISCSGTSSNIGSHYVFWYQQLPGTAPKLLIHRNDERPSGVPDRFSGSKSGTSASLAISGLQSEDEADYYCATWDDNLNGPVFGGGTKLT", 36),
    ("D02 (antibody, human IgG4, V domains shown) VH: EVQLLESGGGLVQPGGSLRLSCAASGFTFSWYDMAWVRQAPGKGLEWVSRIVPSGGHTSYADSVKGRFTISRDNFKNTLYLQMNSLRAEDTAVYYCARRASRPEFFDYWGQGALVTVSS VL: DIQMTQSPSFLSASVGDRVTITCRASQGISTYLAWYQQKPGKAPKVLIYTASTLQSGVPSRFSGSGSGTEFTLTISSLQPEDFATYYCQQSYITPPEVTFGPGTKVDIKR", 25),
    ("D06 (antibody, human IgG4, V domains shown) VH: EVQLLESGGGLVQPGGSLRLSCAASGFTFSGYIMEWVRQAPGKGLEWVSVIVSSGGFTMYADSVKGRFTISRDNSKNTLYLQMNSLRAEDTAVYYCARVGDSKGGYYLDYWGQGTLVTVSS VL: DIQMTQSPSSLSASVGDRVTITCRTSQIINTYLNWYQQKPGKAPKLLIYAASTLQGGVPSRFSGSGSGTDFTLTIKSLQPDDFATYYCQQSYTSPRTFGQGTKVEIKR", 35),
    ("D6-orig (antibody, human IgG4, V domains shown) VH: EVQLLESGGGLVQPGGSLRLSCAASGFTFSMYSMRWVRQAPGKGLEWVSSIYPSGGSTEYADSVKGRFTISRDNSKNTLYLQMNSLRAEDTAVYYCAREGGENDYWGQGTLVTVSS VL: DIQMTQSPLSLSASVGDRVAITCRASQSIDTYLNWYQQKPGKAPKLLIYAASKLEDGVPSRFSGSGTGTDFTLTIRSLQPEDFASYFCQQSYSSPGITFGPGTKVEIKR", 52),
]

Per the records, this binder ( A11 (antibody, human IgG4, V domains shown) VH: EVQLLESGGGLVQPGGSLRLSCAASGFTFSWYTMMWVRQAPGKGLEWVSRISPSGGHTLYADSVKGRFTISRDNSZNTLYLQMNSLRAEDTAVYYCARDTWDDYYDSSGYYNDFDYWGQGTLVTVSS VL: QSALTQPPSVSLAPGQTARITCGGNNIGTKSVHWYQQKPGQAPVLVVYDDSDRPSGIPERFSGSNSGNTATLTISRVEAGDEADYYCQVWDSGSDHQVFGGGTKLTVLG ) has % Inhibition of JEG-3 cell invasion, 25 µg/ml (first test) equal to 56

Per the records, this binder ( D04 (antibody, human IgG4, V domains shown) VH: EVQLLESGGGLVQPGGSLRLSCAASGFTFSDYQMMWVRQAPGKGLEWVSRISPSGGMTRYADSVKGRFTISRDNSKNTLYLPMNSLRAEDTAVYYCARSGPYYFDYWGQGTLVTVSS VL: DIQMTQSPSSLSASVGDRVAITCRASQSIDTYLNWYQQKPGKAPKLLIYAASKLEDGVPSRFSGSGTGTDFTLTIRSLQPEDFASYFCQQSYSSPGITFGPGTKVEIKR ) has % Inhibition of JEG-3 cell invasion, 25 µg/ml (first test) equal to 34

Per the records, this binder ( C05 (antibody, human IgG4, V domains shown) VH: EVQLLESGGGLVQPGGSLRLSCAASGFTFSSYQMDWVRQAPGKGLEWVSRIVPSGGDTTYADSVKGRFTISRDNSKNTLYLQMNSLRAEDTAVYYCARHVYYDSSDYFPNPFDYWGQGTLVTVSS VL: QSELTQPPSVSGTPGQRVTISCSGSSSNIGSEYVYWFQQLPGTAPRLLIYRNDQRPSGVPDRFSGSKSGTSASLAISGLRSEDETDYYCTTWDDSLSGPVFGGGTKLTVLG ) has % Inhibition of JEG-3 cell invasion, 25 µg/ml (first test) equal to 32
